Entry source: patent US20190010203A1

I'd be grateful if you could share measured EC50 (nM), CLR/RAMP1 cAMP assay for these entries.
Molecular target: CLR/RAMP1 receptor (UniProt Q16602 23-461; O60894 27-148, limits assumed)
Sequence (Q16602 23-461 limits assumed, chain 1 of 2): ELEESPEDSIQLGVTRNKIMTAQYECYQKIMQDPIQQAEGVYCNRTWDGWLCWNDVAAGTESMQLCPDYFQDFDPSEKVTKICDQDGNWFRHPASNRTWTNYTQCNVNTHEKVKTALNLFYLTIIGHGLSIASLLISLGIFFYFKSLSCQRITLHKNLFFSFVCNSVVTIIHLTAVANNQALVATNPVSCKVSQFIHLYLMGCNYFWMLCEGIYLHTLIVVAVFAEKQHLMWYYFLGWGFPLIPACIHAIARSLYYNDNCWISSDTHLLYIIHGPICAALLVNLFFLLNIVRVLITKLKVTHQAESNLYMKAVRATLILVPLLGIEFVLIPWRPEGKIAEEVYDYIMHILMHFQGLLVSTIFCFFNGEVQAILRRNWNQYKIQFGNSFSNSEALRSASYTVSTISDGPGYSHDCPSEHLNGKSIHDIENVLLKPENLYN
Sequence (O60894 27-148 limits assumed, chain 2 of 2): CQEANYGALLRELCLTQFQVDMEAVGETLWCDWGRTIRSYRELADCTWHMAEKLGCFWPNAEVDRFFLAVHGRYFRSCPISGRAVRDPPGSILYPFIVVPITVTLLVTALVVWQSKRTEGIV
Assay: cell-based or functional assay
*: point of attachment. Palmitoyl = CCCCCCCCCCCCCCCC(=O)*

A selection of reference data follows.
binder	EC50 (nM), CLR/RAMP1 cAMP assay
Palmitoyl-KGCRFGTCTVQKLAHQIYQFTDKDVAPRSKISPQGY-NH2 (ends and bridges not checked) [SEQ ID NO: 103]	4.5 nM
Palmitoyl-KCRFGTCTVQKLAHQIYQFTDKDKDNSAPVDPSSPHSY-NH2 (ends and bridges not checked) [SEQ ID NO: 44]	0.1 nM
Ac-VGCRFGTCTVQKLAHQIYQFTPAGRQDSAPVDPSSPHSY-NH2 (ends and bridges not checked) [SEQ ID NO: 57]	909 nM
Palmitoyl-KGCRFGTCTVQKLAHQIYQFTDKDKDNSAPVDPSSPHSY-NH2 (ends and bridges not checked) [SEQ ID NO: 30]	0.4 nM
Ac-KGCRFGTCTVQKLAHQIYQFTDKDKDNSAPVDPSSPHSY-NH2 (ends and bridges not checked) [SEQ ID NO: 59]	31 nM
Palmitoyl-KGCRFGTCTVQKLAHQIYQFTDKGRQDSAPVDPSSPHSY-NH2 (ends and bridges not checked) [SEQ ID NO: 36]	0.6 nM
Ac-TK(Palmitoyl)KTLRTGCRFGTCTVQKLAHQIYQFTDKDKDNVAPVDPSSPHSY-NH2 (ends and bridges not checked) [SEQ ID NO: 41]	0.4 nM
Palmitoyl-KTKKTLRTGCRFGTCTVQKLAHQIYQFTDKDKDNSAPVDPSSPHSY-NH2 (not fully specified; printed as Pal-KTKKTLRTGCRFGTCTVQKLAHQIYQFTDKDKDNSAPVDPSSPHSY-NH2; ends and bridges not checked) [SEQ ID NO: 38]	0.5 nM

Output measured EC50 (nM), CLR/RAMP1 cAMP assay for this item: KGCRFGTCTVQKLAHQIYQFTDKDKDNVAPRSKISPQGY (N-terminal palmitoyl (Pal); palmitoyl on Lys 1 side chain, K(Pal); C-terminal amide) [SEQ ID NO: 73] 34 nM
